Provenance of the data: the supplement of paper PMC8671470

# Test system: HL-60
# experimental.protocol: cell viability (% survival relative to DMSO control, bortezomib = 0%); higher = less cytotoxic
# setup.conditions: 10000 nM; 72 h
Each entry below carries its recorded cell viability.

The following compounds have reported results that may help.
compound=CC(C)(CCCCCCCCCCC(C)(C)CC(=O)O)CC(=O)O assayed_system=HL-60 readout="cell viability" endpoint_result=108%
compound="O=[As]O[As]=O (stereo not given) [Arsenic trioxide]" assayed_system=HL-60 readout="cell viability" endpoint_result=55.6%
compound=N=C(N)c1ccc(N=NNc2ccc(C(=N)N)cc2)cc1 assayed_system=HL-60 readout="cell viability" endpoint_result=96.6%
compound=O=C(Oc1cccc(F)c1OC(=O)c1cccc(O)c1)c1cccc(O)c1 assayed_system=HL-60 readout="cell viability" endpoint_result=48%

Kindly review the next compound as well.
Query: I would be grateful if you could share the reported cell viability for C=C1C(=O)O[C@H](CCCCCCCC)[C@H]1C(=O)O .
Response: 120%

* * *

# reported cell viability; entries follow
# System: myeloid leukemia patient primary cells Pat.4
# experimental.protocol: cell viability (% survival relative to DMSO control); higher = less cytotoxic
# setup.conditions: 10 nM; 72 h
Answer format: numeric, % implied, no suffix.

Study these solved cases before continuing.
compound=CC(C)c1onc(-c2c(Cl)cccc2Cl)c1COc1ccc(/C=C/c2cccc(C(=O)O)c2)c(Cl)c1 endpoint_result=92
compound=CCCCCCCCCCCCC/C=C/[C@@H](O)[C@H](CO)N(C)C endpoint_result=80.5
compound="CCC(CC#N)OC(=O)N[C@@H](C)c1cccc(NC(=O)Nc2ccc(-c3cnco3)c(OC)c2)c1 (stereo in doubt)" endpoint_result=90.7
compound=O=C(Cc1cccc(OC(F)(F)F)c1)Nc1ccc(CCCCc2nnc(NC(=O)Cc3ccccn3)s2)nn1 endpoint_result=91.5

Query: May I ask what cell viability has been recorded for Nc1ccn([C@@H]2O[C@H](CO)[C@@H](O)C2(F)F)c(=O)n1 ?
Response: 93.4

* * *

Each entry below carries its reported cell viability.
# Tested on: BV-173
# experimental.protocol: cell viability (% survival relative to DMSO control, bortezomib = 0%); higher = less cytotoxic
# setup.conditions: 10 nM; 72 h
Quick reminder: number only, in %, skip the unit.

Use the examples below as a reference point.
compound=c1ccc2nc(-c3nnc4sc(-c5cnccn5)nn34)ccc2c1 readout="cell viability" endpoint_result=105
compound="O=C(C(=O)c1ccc(Br)cc1)c1ccc(Br)cc1 [4,4'-Dibromobenzil]" readout="cell viability" endpoint_result=117
compound=CN(C)C(=O)n1nnnc1Cc1ccc(-c2ccccc2)cc1 readout="cell viability" endpoint_result=110

Switching to the query record.
Query: Can you share its cell viability? I mean this compound: NS(=O)(=O)c1ccc(S(=O)(=O)Nc2cccc3c(Cl)c[nH]c23)cc1 [Indisulam]
Response: 87.3

* * *

# Test system: LAMA-84
# experimental.protocol: cell viability (% survival relative to DMSO control, bortezomib = 0%); higher = less cytotoxic
# setup.conditions: 1000 nM; 72 h
readout: cell viability (%)
Lab book: enter the figure in %, no units written.

molecule=Nc1ccn([C@@H]2O[C@H](CO)[C@@H](O)C2(F)F)c(=O)n1 readout="cell viability" unit_symbol=% endpoint_result=4.64
molecule=N=C(N)c1ccc(N=NNc2ccc(C(=N)N)cc2)cc1 readout="cell viability" unit_symbol=% endpoint_result=105
molecule=O=C(Oc1cccc(F)c1OC(=O)c1cccc(O)c1)c1cccc(O)c1 readout="cell viability" unit_symbol=% endpoint_result=95.1
molecule=CCCCCCCCCCCCCCOc1ccc(C(=O)O)o1 readout="cell viability" unit_symbol=% endpoint_result=103
molecule=CC(=O)N[C@@H](CS)C(=O)O readout="cell viability" unit_symbol=% endpoint_result=101

Query: Value wanted: cell viability (LAMA-84) of entry O=NN(CCCl)C(=O)NCCCl
Response: 92.9

Query: Recall the recorded cell viability for O=C1N[C@@H]2[C@@H](O)[C@@H](O)[C@H](O)[C@@H](CO)N2C1=O with LAMA-84 and state it.
Response: 84.4

Query: Record lookup: for LAMA-84, what cell viability belongs to O=C(Cc1cccc(OC(F)(F)F)c1)Nc1ccc(CCCCc2nnc(NC(=O)Cc3ccccn3)s2)nn1 ?
Response: 66.3

Query: Checklist item: cell viability tested on LAMA-84, entry N#Cc1ccc(C2CCCc3cncn32)cc1 (stereo not given) , value?
Response: 95.5

Query: Find cell viability (LAMA-84) for the entry C#CCN[C@@H]1CCc2ccccc21
Response: 91.8
